Item-by-item account of TGI
test system: HT29 colon; experiment: NCI tumour cell line growth inhibition, 48 h

{"compound": "CC1=C(C(=O)Nc2ccccc2)C(c2ccc(N(C)C)cc2)C(C(=O)Nc2ccccc2)=C(C)N1", "TGI": "> 75.8 µM"}
{"compound": "O=C1NC(=N[C@@H](CO)c2ccccc2)S/C1=C\\c1ccc2ncccc2c1", "TGI": "> 25 µM"}
{"compound": "CN(CCN1CCCC1)C1CCc2cc(Cl)c(Cl)cc2C1 (stereo not drawn)", "TGI": "22.8 µM"}
{"compound": "CCOC(=O)C1C(c2ccc(Cl)cc2Cl)NC(c2ccc(C)cc2)C(C(=O)OC)S1(=O)=O (stereo not drawn)", "TGI": "> 100 µM"}
{"compound": "CCCCI(O)OS(=O)(=O)c1ccc(C)cc1", "TGI": "> 100 µM"}
{"compound": "Cc1ccc2c(c1C)C(=O)C1(Cc3cc4c(cc3C1=O)CCC4)C2 (stereo not drawn)", "TGI": "> 100 µM"}
{"compound": "COC(=O)[C@]1(C)CCC[C@@]2(C)C1CC[C@]13C=C(C(C)C)[C@H](CC21)CC3(Cl)C#N (stereo partly drawn)", "TGI": "> 100 µM"}
{"compound": "COc1ccc(C2Oc3ccc(Cl)cc3C=C2[N+](=O)[O-])cc1 (stereo not drawn)", "TGI": "> 100 µM"}

Q: Need TGI, item CCOC(=O)/C=C/c1nc(C#N)c(N)o1
Ans: > 100 µM

Q: Record request: TGI value, item OCc1cc2c(cn1)[nH]c1ccc(NCc3ccccc3)cc12
Ans: 32.2 µM

Q: Fill in the blank: the reported TGI of O=[N+]([O-])c1ccccc1C1SCc2nc3ccccc3n21 (stereo not drawn) is ____.
Ans: > 100 µM

Q: What measured TGI goes with COc1cc([C@@H]2c3cc4c(cc3[C@@H](NC(=O)c3ccc(C#N)cc3)C3COC(=O)[C@@H]32)OCO4)cc(OC)c1O (stereo partly drawn) ?
Ans: 4.23 µM
